- target_system: ADAMTS4 (Homo sapiens (Human), UniProt O75173)
- Sequence (O75173 213-685): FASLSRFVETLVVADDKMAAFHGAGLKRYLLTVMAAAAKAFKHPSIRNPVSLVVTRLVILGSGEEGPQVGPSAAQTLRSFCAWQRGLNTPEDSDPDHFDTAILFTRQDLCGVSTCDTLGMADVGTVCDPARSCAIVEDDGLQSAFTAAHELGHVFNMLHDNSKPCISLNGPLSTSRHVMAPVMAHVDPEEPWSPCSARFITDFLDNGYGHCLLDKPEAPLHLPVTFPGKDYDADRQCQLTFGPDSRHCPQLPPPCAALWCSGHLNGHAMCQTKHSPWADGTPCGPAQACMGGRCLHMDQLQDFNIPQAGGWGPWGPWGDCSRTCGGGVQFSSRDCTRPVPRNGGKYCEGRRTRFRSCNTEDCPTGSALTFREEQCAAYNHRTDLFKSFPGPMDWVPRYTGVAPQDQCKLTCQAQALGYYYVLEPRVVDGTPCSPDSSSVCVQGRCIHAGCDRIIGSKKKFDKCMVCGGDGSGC
- experimental_protocol: Selectivity assay for ADAMTS-7 modulators: ADAMTS4 (FRET substrate)
- Type: biochemical
- condition_notes: ADAMTS4 (R&D 4307-AD) 50 nM, substrate Dabcyl-EEVKAKVQPY-Glu(Edans)-NH2 1 μM, 120 min, 32° C.
quantity_kind: IC50 (µM)

{"compound": "Cc1cnoc1C1(CNC(=O)c2ccccc2-c2ccc(C(F)(F)F)nc2)NC(=O)NC1=O (stereo not shown) [Example 78]", "target_system": "ADAMTS4 (Homo sapiens (Human), UniProt O75173)", "measurement_units": "µM", "IC50": 14}
{"compound": "O=C1NC(=O)[C@](CNC(=O)c2c(Cl)cccc2-c2ccc(Cl)cc2)(C2CC2)N1 [Example 231]", "target_system": "ADAMTS4 (Homo sapiens (Human), UniProt O75173)", "measurement_units": "µM", "IC50": 5.2}

[P] Cn1nccc1C1(CNC(=O)c2cccc(F)c2-c2ccc(C(F)(F)F)cc2)NC(=O)NC1=O (single isomer, unassigned; ent-6) [Example 195]
[Q] O=C1NC(=O)[C@](CNC(=O)c2ccc(F)cc2-c2ccc(Cl)cc2)(C2CC2)N1 [Example 126]
[R] O=C1NC(=O)[C@](CNC(=O)c2cc(F)c(F)cc2-c2ccc(C3CC3(F)F)cc2)(C2CC2)N1 (stereo partly shown) [Example 144]
Could you please sort these 3 entries by IC50 from high to low? Form entry: labels listed in requested order.
R, Q, P

====

- target_system: ADAMTS4 (Homo sapiens (Human))
- experimental_protocol: Selectivity assay for ADAMTS-7 modulators: ADAMTS4 (FRET substrate)
- Assay type: biochemical
- condition_notes: ADAMTS4 (R&D 4307-AD) 50 nM, substrate Dabcyl-EEVKAKVQPY-Glu(Edans)-NH2 1 μM, 120 min, 32° C.
- Protocol: 1 μl test compound solution (dissolved in DMSO, at the corresponding concentration) or pure DMSO as a control was added per well. […] The increase of fluorescence intensity was measured in appropriate fluorescence plate reader (e.g. TECAN Ultra) using the respective wavelengths for excitation and emission. IC50 values were calculated from percentage of inhibition of enzyme activity as a function of test compound concentration.
quantity_kind: IC50 (µM)

{"compound": "CC(C)C1(CNC(=O)c2cc(F)ccc2-c2ccc(C(F)(F)F)cc2)NC(=O)NC1=O (single isomer, unassigned; ent-4)", "quantity_kind": "IC50", "value_measured": 13}

[P] Cn1ccnc1C1(CNC(=O)c2ccc(F)cc2-c2ccc(C(F)(F)F)cc2)NC(=O)NC1=O (single isomer, unassigned; ent-5)
[Q] O=C1NC(=O)C(CNC(=O)c2ccc(F)cc2-c2ccc(C(F)(F)F)cc2)(c2ncsc2C2CC2)N1 (stereo not shown) [Example 273]
[R] O=C1NC(=O)C(CNC(=O)c2ccccc2-c2ccc(C(F)(F)F)nc2)(c2cscn2)N1 (stereo not shown)
Could you please sort these 3 entries by IC50 from high to low? Form entry: labels listed in requested order.
Q, R, P

====

- target_system: ADAMTS4 (Homo sapiens (Human))
- experimental_protocol: Selectivity assay for ADAMTS-7 modulators: ADAMTS4 (FRET substrate)
- Assay type: biochemical
- condition_notes: ADAMTS4 (R&D 4307-AD) 50 nM, substrate Dabcyl-EEVKAKVQPY-Glu(Edans)-NH2 1 μM, 120 min, 32° C.
- Method: 1 μl test compound solution (dissolved in DMSO, at the corresponding concentration) or pure DMSO as a control was added per well. […] The increase of fluorescence intensity was measured in appropriate fluorescence plate reader (e.g. TECAN Ultra) using the respective wavelengths for excitation and emission. IC50 values were calculated from percentage of inhibition of enzyme activity as a function of test compound concentration.
pIC50: −log10 of the molar value.
quantity_kind: pIC50

{"compound": "Cc1nc(C)c(C2(CNC(=O)c3ccccc3-c3ccc(C(F)(F)F)nc3)NC(=O)NC2=O)s1 (stereo not shown) [Example 74]", "value_measured": 5.28}
{"compound": "CC(C)(C)C1(CNC(=O)c2ccccc2-c2ccc(C(F)(F)F)cc2)NC(=O)NC1=O (stereo not shown) [Example 71]", "value_measured": 4.79}
{"compound": "Cc1cn(C)nc1C1(CNC(=O)c2ccccc2-c2ccc(C(F)(F)F)cc2)NC(=O)NC1=O (racemic) [Example 39]", "value_measured": 5.00}

[A] Cc1ncsc1C1(CNC(=O)c2ccccc2-c2ccc(C(F)(F)F)cc2)NC(=O)NC1=O (racemic) [Example 5]
[B] Cn1nccc1C1(CNC(=O)c2cc(F)ccc2-c2ccc(Cl)cc2)NC(=O)NC1=O (single isomer, unassigned; ent-4)
[C] O=C1NC(=O)[C@](CNC(=O)c2ccc(F)cc2-c2ccc(C(F)(F)F)nc2)(C2CC2)N1
Give the ascending ranking of the items by reported pIC50. Form entry: labels listed in requested order.
C, A, B

====

- target_system: ADAMTS4 (Homo sapiens (Human))
- experimental_protocol: Selectivity assay for ADAMTS-7 modulators: ADAMTS4 (FRET substrate)
- Assay type: biochemical
- condition_notes: ADAMTS4 (R&D 4307-AD) 50 nM, substrate Dabcyl-EEVKAKVQPY-Glu(Edans)-NH2 1 μM, 120 min, 32° C.
pIC50: −log10 of the molar value.
quantity_kind: pIC50

[a] Cn1ccnc1C1(CNC(=O)c2cccc(F)c2-c2ccc(C(F)(F)F)cc2)NC(=O)NC1=O (single isomer, unassigned; ent-6)
[b] Cn1nccc1C1(CNC(=O)c2ccccc2-c2ccc(C(F)(F)F)nc2)NC(=O)NC1=O (stereo not shown)
Form: Entry with minimum pIC50 (choose one): a / b Please reply using the label of the selected record.
b

[A] O=C1NC(=O)C(CNC(=O)c2ccc(F)cc2-c2ccc(Cl)cc2)(c2ccnn2C(F)F)N1 (racemic)
[B] O=C1NC(=O)C(CNC(=O)c2ccc(F)cc2-c2ccc(C(F)(F)F)cc2)(C23CC(F)(C2)C3)N1 (single isomer, unassigned; ent-5) [Example 294]
Form: Entry with minimum pIC50 (choose one): A / B Please reply using the label of the selected record.
B

====

- target_system: ADAMTS4 (Homo sapiens (Human))
- experimental_protocol: Selectivity assay for ADAMTS-7 modulators: ADAMTS4 (FRET substrate)
- Format: biochemical
- condition_notes: ADAMTS4 (R&D 4307-AD) 50 nM, substrate Dabcyl-EEVKAKVQPY-Glu(Edans)-NH2 1 μM, 120 min, 32° C.
quantity_kind: IC50 (µM)

{"molecule": "O=C1NC(=O)[C@](CNC(=O)c2ccc(F)c(F)c2-c2ccc(C(F)(F)F)nc2)(C2CC2)N1 [Example 76]", "target_system": "ADAMTS4 (Homo sapiens (Human))", "measurement_units": "µM", "value_measured": 14}

[1] O=C1NC(=O)C(CNC(=O)c2ccccc2-c2ccc(C(F)(F)F)nc2)(C2(Cl)CC2)N1 (racemic) [Example 281]
[2] Cc1cnoc1C1(CNC(=O)c2ccccc2-c2ccc(C(F)(F)F)nc2)NC(=O)NC1=O (racemic) [Example 77]
Form: Entry with minimum IC50 (choose one): 1 / 2 Please reply using the label of the selected record.
1

====

- target_system: ADAMTS4 (Homo sapiens (Human))
- experimental_protocol: Selectivity assay for ADAMTS-7 modulators: ADAMTS4 (FRET substrate)
- Type: biochemical
- condition_notes: ADAMTS4 (R&D 4307-AD) 50 nM, substrate Dabcyl-EEVKAKVQPY-Glu(Edans)-NH2 1 μM, 120 min, 32° C.
pIC50: −log10 of the molar value.
quantity_kind: pIC50

Examples from the recorded data:
{"compound": "O=C1NC(=O)C(CNC(=O)c2ccc(F)c(F)c2-c2ccc(C(F)(F)F)cc2)(c2cscn2)N1 (stereo not shown)", "target_system": "ADAMTS4 (Homo sapiens (Human))", "pIC50": 5.07}
{"compound": "O=C1NC(=O)[C@](CNC(=O)c2ccc(Cl)cc2-c2ccc(C(F)(F)F)nc2)(C2CC2)N1", "target_system": "ADAMTS4 (Homo sapiens (Human))", "pIC50": 5.00}
{"compound": "O=C1NC(=O)[C@](CNC(=O)c2ccccc2-c2ccc(F)cc2)(C2CC2)N1", "target_system": "ADAMTS4 (Homo sapiens (Human))", "pIC50": 5.06}

[I] O=C1NC(=O)C(CNC(=O)c2ccccc2-c2ccc(C(F)(F)F)cc2)(c2ncsc2C2CC2)N1 (racemic) [Example 270]
[II] Cn1ccnc1C1(CNC(=O)c2cc(F)ccc2-c2ccc(C3CC3(F)F)cc2)NC(=O)NC1=O (stereo not shown)
[III] CC(C)C1(CNC(=O)c2ccccc2-c2ccc(C(F)(F)F)nc2)NC(=O)NC1=O (stereo not shown)
Could you please sort these 3 entries by pIC50 from high to low? Form entry: labels listed in requested order.
II, I, III
(II: 5.68, I: 5.16, III: 4.55)

====

- target_system: ADAMTS4 (Homo sapiens (Human), UniProt O75173)
- experimental_protocol: Selectivity assay for ADAMTS-7 modulators: ADAMTS4 (FRET substrate)
- Assay type: biochemical
- condition_notes: ADAMTS4 (R&D 4307-AD) 50 nM, substrate Dabcyl-EEVKAKVQPY-Glu(Edans)-NH2 1 μM, 120 min, 32° C.
- Procedure: 1 μl test compound solution (dissolved in DMSO, at the corresponding concentration) or pure DMSO as a control was added per well. […] The increase of fluorescence intensity was measured in appropriate fluorescence plate reader (e.g. TECAN Ultra) using the respective wavelengths for excitation and emission. IC50 values were calculated from percentage of inhibition of enzyme activity as a function of test compound concentration.
quantity_kind: IC50 (µM)

Examples from the recorded data:
{"compound": "O=C1NC(=O)[C@](CNC(=O)c2ccc(F)cc2-c2ccc(F)cc2)(C2CC2)N1", "measurement_units": "µM", "value_measured": 13}
{"compound": "Cn1nccc1C1(CNC(=O)c2c(F)cccc2-c2ccc(Cl)cc2)NC(=O)NC1=O (single isomer, unassigned; ent-4)", "measurement_units": "µM", "value_measured": 20}
{"compound": "Cc1ncsc1C1(CNC(=O)c2ccc(F)cc2-c2ccc(C(F)(F)F)cc2)NC(=O)NC1=O (single isomer, unassigned; ent-5)", "measurement_units": "µM", "value_measured": 8.9}

[P] Cn1nc2ccccc2c1C1(CNC(=O)c2ccc(F)cc2-c2ccc(C(F)(F)F)cc2)NC(=O)NC1=O (racemic)
[Q] Cn1ccnc1C1(CNC(=O)c2c(F)cccc2-c2ccc(C(F)(F)F)cc2)NC(=O)NC1=O (single isomer, unassigned; ent-3)
Form: Entry with minimum IC50 (choose one): P / Q Please reply using the label of the selected record.
Q
